Target: Neurotensin receptor type 1 (Homo sapiens, UniProt P30989, H131A)
Sequence (P30989 whole entry H131A): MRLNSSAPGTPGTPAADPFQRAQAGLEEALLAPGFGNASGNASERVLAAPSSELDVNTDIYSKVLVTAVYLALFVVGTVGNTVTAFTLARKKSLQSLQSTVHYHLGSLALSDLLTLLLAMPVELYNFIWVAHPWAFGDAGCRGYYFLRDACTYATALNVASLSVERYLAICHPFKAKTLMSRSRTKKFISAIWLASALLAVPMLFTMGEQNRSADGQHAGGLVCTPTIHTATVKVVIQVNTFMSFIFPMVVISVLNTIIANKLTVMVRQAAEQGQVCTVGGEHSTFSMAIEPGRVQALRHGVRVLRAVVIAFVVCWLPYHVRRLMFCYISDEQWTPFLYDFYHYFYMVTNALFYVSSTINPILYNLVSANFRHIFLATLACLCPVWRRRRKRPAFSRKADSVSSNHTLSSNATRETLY
Assay: Displacement of [3H]SR48692 from human NTR1 extracellular loop 1 H131A mutant expressed in HEK293 cells
MEASURED PROPERTY: pKd
Give bare numbers, as −log10 of the molar value.

// assay Neurotensin receptor type 1 (Homo sapiens, UniProt P30989, H131A), entry COc1cccc(OC)c1-c1cc(C(=O)NC2(C(=O)O)C3CC4CC(C3)CC2C4)nn1-c1ccnc2cc(Cl)ccc12 (stereo unspecified) , pKd value = 8.08
